For Glycogen synthase kinase-3 alpha (Homo sapiens), measured pIC50 is reported for the entries below.
pIC50: −log10 of the molar value.

{"Compound": "CN1CCC2(CC1)C1=C(N=NC1)NC1=C2C(=O)CC(C)(C)C1", "Target": "Glycogen synthase kinase-3 alpha (Homo sapiens)", "pIC50": "< 5.30"}
{"Compound": "CC[C@@]1(c2cccc(N3CCOCC3)c2)C2=C(CC(C)(C)CC2=O)NC2N=NC(C(F)(F)F)=C21 (stereo not given in full)", "Target": "Glycogen synthase kinase-3 alpha (Homo sapiens)", "pIC50": "5.30 to 6.00"}
{"Compound": "CC[C@]1(c2cccc(-c3ccnc(C)c3)c2)C2=CN=NC2NC2=C1C(=O)CC(C)(C)[C@@H]2F (stereo not given in full)", "Target": "Glycogen synthase kinase-3 alpha (Homo sapiens)", "pIC50": "5.30 to 6.00"}
{"Compound": "CC[C@@]1(c2cccc(-c3cn(C)nc3C)c2)C2=CN=NC2NC2=C1C(=O)CC(C)(C)C2 (stereo not given in full)", "Target": "Glycogen synthase kinase-3 alpha (Homo sapiens)", "pIC50": "> 7.00"}
{"Compound": "COc1cccc(S(=O)(=O)N2CCCC3(CC2)C2=CN=NC2NC2=C3C(=O)CC(C)(C)C2)c1 (stereo not given)", "Target": "Glycogen synthase kinase-3 alpha (Homo sapiens)", "pIC50": "> 7.00"}
{"Compound": "Cc1cccc2c1CCC21C2=C(N=NC2)NC2=C1C(=O)CC(C)(C)C2 (stereo not given)", "Target": "Glycogen synthase kinase-3 alpha (Homo sapiens)", "pIC50": "> 7.00"}
{"Compound": "CC(C)(C)CC1N=NC2=C1[C@](C)(c1cccc(S(=O)(=O)CC3CC3)c1)C1=C(CC(C)(C)NC1=O)N2 (stereo not given in full)", "Target": "Glycogen synthase kinase-3 alpha (Homo sapiens)", "pIC50": "6.00 to 7.00"}
{"Compound": "Cn1cc([C@H]2CC[C@]3(CC2)C2=C(N=NC2)NC2=C3C(=O)CC(C)(C)C2)cn1", "Target": "Glycogen synthase kinase-3 alpha (Homo sapiens)", "pIC50": "6.00 to 7.00"}
{"Compound": "Cn1ccc(S(=O)(=O)N2CC[C@]3(C2)C2=C(N=NC2)NC2=C3C(=O)CC(C)(C)C2)n1", "Target": "Glycogen synthase kinase-3 alpha (Homo sapiens)", "pIC50": "> 7.00"}
{"Compound": "CC[C@]1(c2cccc(S(=O)(=O)C3CC3)c2)C2=C(CC(C)(C)NC2=O)NC2=C1C(C(F)(F)F)N=N2 (stereo not given in full)", "Target": "Glycogen synthase kinase-3 alpha (Homo sapiens)", "pIC50": "> 7.00"}
{"Compound": "CC[C@]1(c2cccc(-c3c(Cl)cncc3Cl)c2)C2=CN=NC2NC2=C1C(=O)NC(C)(C)C2 (stereo not given in full)", "Target": "Glycogen synthase kinase-3 alpha (Homo sapiens)", "pIC50": "5.30 to 6.00"}
{"Compound": "CCC1(c2cccc(N3CC(C)(C)C3C(C)C)c2)C2=CN=NC2NC2=C1C(=O)CC(C)(C)C2 (stereo not given)", "Target": "Glycogen synthase kinase-3 alpha (Homo sapiens)", "pIC50": "6.00 to 7.00"}
{"Compound": "CC1(C)CC(=O)C2=C(C1)NC1=C(CN=N1)C21CCN(S(=O)(=O)c2cnn3c2CCCC3)CC1", "Target": "Glycogen synthase kinase-3 alpha (Homo sapiens)", "pIC50": "> 7.00"}
{"Compound": "CC[C@]1(c2cccc(-c3ccnc4ccccc34)c2)C2=CN=NC2NC2=C1C(=O)CC(C)(C)C2 (stereo not given in full)", "Target": "Glycogen synthase kinase-3 alpha (Homo sapiens)", "pIC50": "< 5.30"}
{"Compound": "CC[C@]1(c2cccc(-c3cn(C)nc3C)c2)C2=CN=NC2NC2=C1C(=O)N(C)C(C)(C)C2 (stereo not given in full)", "Target": "Glycogen synthase kinase-3 alpha (Homo sapiens)", "pIC50": "5.30 to 6.00"}
{"Compound": "CC1(C)CC(=O)C2=C(C1)NC1N=NC=C1C21CCCN(S(=O)(=O)c2ccccc2)CC1 (stereo not given)", "Target": "Glycogen synthase kinase-3 alpha (Homo sapiens)", "pIC50": "> 7.00"}
{"Compound": "CCC1(c2cccc(N3CCOCC3)c2)C2=C(CC(C)(C)CC2=O)NC2N=NC(C(F)(F)F)=C21 (stereo not given)", "Target": "Glycogen synthase kinase-3 alpha (Homo sapiens)", "pIC50": "> 7.00"}
{"Compound": "CC[C@]1(c2ccccc2)C2=CN=NC2NC2=C1C(=O)C[C@]1(CCCOC1)C2 (stereo not given in full)", "Target": "Glycogen synthase kinase-3 alpha (Homo sapiens)", "pIC50": "6.00 to 7.00"}
{"Compound": "CCC1(c2cccc(C(F)(F)F)c2)C2=CN=NC2NC2=C1C(=O)N(C1=CN=NC1)CC2 (stereo not given)", "Target": "Glycogen synthase kinase-3 alpha (Homo sapiens)", "pIC50": "> 7.00"}
{"Compound": "CC[C@]1(c2cccc(C(F)(F)F)c2)C2=CN=NC2NC2=C1C(=O)N(c1cscn1)CC2 (stereo not given in full)", "Target": "Glycogen synthase kinase-3 alpha (Homo sapiens)", "pIC50": "> 7.00"}
{"Compound": "CCC1(c2cccc(N(C)C(=O)Cc3ccccc3)c2)C2=CN=NC2NC2=C1C(=O)CC(C)(C)C2 (stereo not given)", "Target": "Glycogen synthase kinase-3 alpha (Homo sapiens)", "pIC50": "> 7.00"}
{"Compound": "CCC1(c2cccc(N(C)c3cc(C)cc(C)n3)c2)C2=CN=NC2NC2=C1C(=O)CC(C)(C)C2 (stereo not given)", "Target": "Glycogen synthase kinase-3 alpha (Homo sapiens)", "pIC50": "> 7.00"}
{"Compound": "CC[C@]1(c2cccc([C@H](C)c3ncccn3)c2)C2=CN=NC2NC2=C1C(=O)CC(C)(C)C2 (stereo not given in full)", "Target": "Glycogen synthase kinase-3 alpha (Homo sapiens)", "pIC50": "6.00 to 7.00"}
{"Compound": "CCC1(c2cccc(-c3c(F)cncc3OC)c2)C2=CN=NC2NC2=C1C(=O)CC(C)(C)C2 (stereo not given)", "Target": "Glycogen synthase kinase-3 alpha (Homo sapiens)", "pIC50": "> 7.00"}
{"Compound": "CCc1cc(-c2cccc([C@]3(CC)C4=CN=NC4NC4=C3C(=O)NC(C)(C)C4)c2)n(C)n1 (stereo not given in full)", "Target": "Glycogen synthase kinase-3 alpha (Homo sapiens)", "pIC50": "6.00 to 7.00"}
